Biological target: T1, FBF-2 RBD+CT L610A (Caenorhabditis elegans, UniProt Q09312 164-632, L610A)
T1 sequence: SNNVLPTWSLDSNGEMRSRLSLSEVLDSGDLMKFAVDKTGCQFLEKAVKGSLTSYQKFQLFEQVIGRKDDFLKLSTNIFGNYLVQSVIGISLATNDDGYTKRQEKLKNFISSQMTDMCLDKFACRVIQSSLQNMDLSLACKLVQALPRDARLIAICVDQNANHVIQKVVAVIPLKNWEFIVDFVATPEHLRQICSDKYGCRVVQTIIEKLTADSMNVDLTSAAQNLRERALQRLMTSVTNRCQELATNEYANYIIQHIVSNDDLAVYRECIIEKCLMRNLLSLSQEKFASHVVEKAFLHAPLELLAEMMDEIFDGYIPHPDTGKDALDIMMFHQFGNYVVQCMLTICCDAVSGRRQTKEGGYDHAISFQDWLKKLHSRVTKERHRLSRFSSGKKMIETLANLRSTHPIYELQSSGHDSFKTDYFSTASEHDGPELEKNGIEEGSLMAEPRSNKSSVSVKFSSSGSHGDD
Assay: EMSA; no LST-1; EMSA: FBF-2 in 20 mM HEPES pH 7.4, 150 mM NaCl, 0.5 mM TCEP mixed 1:1 with 5 nM final RNA in 10 mM HEPES pH 7.4, 0.01% Tween 20, 0.1 mg/ml BSA, 0.1 mg/ml yeast
Conditions: protein: recombinant; tags: none (His6-SUMO removed with Ulp1); label: 3'-Cy5
pKd: −log10 of the molar value.

- binder: "AUCAUGUGCCAUAC (ssRNA) [gld-1 FBEa RNA (EMSA)]"
  pKd: 7.29
